- TEST METHOD NOTES: Tanguay_ZF_120hpf_JAW_legacy: (Legacy) Oregon State University Tanguay Lab 120 Hour Post-fertilization zebrafish Assay for Jaw Malformation (AID 2283638)
Records with an inconclusive call do not appear. The source made the active and inactive calls. The calls were made as follows: active = hit-call score of the fitted dose curve at least 0.9, where 1 is the maximum; inconclusive = response in the unintended direction; inactive = score below 0.9.
Labels: Yes (active), No (inactive)

> print(dat)
                                    compound  cat
 1  CON=C(C(=O)OC)c1ccccc1CON=C(C)c1cccc(C(F)(F)F)c1  Yes
 2  FC(F)C(F)(F)OCC(Cn1cncn1)c1ccc(Cl)cc1Cl (stereo not drawn)  Yes
 3                        CCCSP(=O)(OCC)SCCC   No
 4               CNC(=O)Oc1cccc2c1OC(C)(C)O2   No
 5  CC(Oc1cccc(Cl)c1)C(=O)O (stereo not drawn)   No
 6                  CCC(=O)Nc1ccc(Cl)c(Cl)c1   No
 7  CCCSP(=O)(OCC)Oc1ccc(Br)cc1Cl (stereo not drawn)   No
 8   C[Si](Cn1cncn1)(c1ccc(F)cc1)c1ccc(F)cc1  Yes
 9  COP(=O)(OC)OC(Br)C(Cl)(Cl)Br (stereo not drawn)   No
10  CCOP(=O)(NC(C)C)Oc1ccc(SC)c(C)c1 (stereo not drawn)  Yes
11                      Nc1nc(N)nc(NC2CC2)n1   No
12               Cc1cc(C2CC2)nc(Nc2ccccc2)n1   No
13  CC(C)[C@H](C(=O)O[C@H](C#N)c1cccc(Oc2ccccc2)c1)c1ccc(Cl)cc1  Yes

###

- Read-out: Interleukin 6 Receptor (IL6R), IL6R (gene 3570)
- TEST METHOD NOTES: LTEA_HepaRG_IL6R: Life Technologies and Expression Analysis (LTEA) Assay for Interleukin 6 Receptor (IL6R) using HepaRG (AID 2283510)
- SETTINGS: mRNA level, 48 h; actives raise or lower the signal
Activity calls are given as the source filed them. Rule for the calls: active = hit-call score of the fitted dose curve at least 0.9, where 1 is the maximum; inactive = score below 0.9.
Labels: active, inactive

> print(dat)
                                    compound       cat
 1              CCc1cccc(CC)c1N(COC)C(=O)CCl  inactive
 2                                 N#CSCSC#N    active
 3   COP(=O)(NC(C)=O)SC (stereo unspecified)  inactive
 4  O=C(O)c1cc(Oc2ccc(C(F)(F)F)cc2Cl)ccc1[N+](=O)[O-]  inactive
 5             Nc1c(Cl)cc([N+](=O)[O-])cc1Cl    active
 6  CN(C)[C@@H]1C(=O)C(C(N)=O)=C(O)[C@@]2(O)C(=O)C3=C(O)c4c(O)cccc4[C@@](C)(O)[C@H]3[C@H](O)[C@@H]12  inactive
 7  CON=C(C(=O)OC)c1ccccc1CON=C(C)c1cccc(C(F)(F)F)c1  inactive
 8       COc1cc(OC)nc(Sc2cccc(Cl)c2C(=O)O)n1  inactive
 9  CC(C)=CC1C(C(=O)OCN2C(=O)C3=C(CCCC3)C2=O)C1(C)C (stereo unspecified)  inactive
10   C[Si](Cn1cncn1)(c1ccc(F)cc1)c1ccc(F)cc1  inactive
11          CCOP(=O)(OCC)Oc1cc(C)nc(C(C)C)n1  inactive
12              CCNc1nc(Cl)nc(NC(C)(C)C#N)n1  inactive
13  CCCCN(CC)c1c([N+](=O)[O-])cc(C(F)(F)F)cc1[N+](=O)[O-]  inactive
14                CC(=NC#N)N(C)Cc1ccc(Cl)nc1  inactive
15  CCCCOC(=O)[C@@H](C)Oc1ccc(Oc2ccc(C#N)cc2F)cc1  inactive
16                CSc1nc(NC(C)C)nc(NC(C)C)n1  inactive
17  CCOP(=S)(OCC)OC(Cl)C(Cl)(Cl)Cl (stereo unspecified)  inactive
18                 CNC(=O)ON=C(SC)C(=O)N(C)C  inactive
19                        CCCSP(=O)(OCC)SCCC  inactive
20                      Nc1nc(N)nc(NC2CC2)n1  inactive
21  CSC1=N[C@@](C)(c2ccccc2)C(=O)N1Nc1ccccc1    active
22  CCOP(=O)(NC(C)C)Oc1ccc(SC)c(C)c1 (stereo unspecified)  inactive
23        CC1(C(=O)Nc2ccc(O)c(Cl)c2Cl)CCCCC1  inactive
24  COc1cccc(C(=O)NN(C(=O)c2cc(C)cc(C)c2)C(C)(C)C)c1C  inactive
25  CC(COc1ccc(Oc2ccccc2)cc1)Oc1ccccn1 (stereo unspecified)  inactive
26  CCCSP(=O)(OCC)Oc1ccc(Br)cc1Cl (stereo unspecified)  inactive
27  CCOP(=O)(SC(C)CC)N1CCSC1=O (stereo unspecified)  inactive
28  CCOP(=S)(Oc1cnc(C(C)(C)C)nc1)OC(C)C (stereo unspecified)    active
29             CN(C)C(=O)Nc1cccc(C(F)(F)F)c1  inactive
30          CCOP(=S)(OCC)Oc1cc(C)nc(C(C)C)n1  inactive
31     CCCOCC(=Nc1ccc(Cl)cc1C(F)(F)F)n1ccnc1    active

Reference source: PubChem BioAssay (EPA / NIEHS)
